test system: SARS-CoV-2 spike (S) protein, full length, wild type, expressed on the surface of CHO cells (SARS-CoV-2, UniProt P0DTC2 14-1273)
reported property: median fluorescence fold over isotype
# include the unit after the value

These solved cases illustrate the format of a correct answer.
[[record]]
binder = "antibody 331 (antibody, V domains shown) V domain 1: QITLKESGPTLVKPTETLTLTCSFSGFSLTKTGEAAGWIRQAPGRALEWVTVIFWDDDKRYSPSLQNRISVTKDTSKNQVVLRMTNVARFDTGTYFCWAMGGPGKEYFGQGTLVAVSS V domain 2: QSVLTQPPSVSGAPGQRVTISCTGTSSSIGPYSDVHWYQHVSGKAPRLLIFGNSNRPSGVPDRFSGSKSGTSASLVIAGLQAEDEADYYCQSYDSSLGEIYVFGTGTTVTVL"
reported_property = "median fluorescence fold over isotype"
result_value = "20.1 fold over isotype"

[[record]]
binder = "antibody 343 (antibody, V domains shown) VH: QVQLVESGGDVVQPGTSLRLSCAASGFTFNNYGFHWVRQAPGKGLEWVALISSDGASTHYADSVKGRFTISRDSSVNTLYLQMNSLSLEDTAVYYCATGHCGTTCYYFDYWGQGTLVSVSS VL: DIQVTQSPSYLSASVGDRVTITCRASQTISTFLQWYQQKVGKAPKLLIYAASTLQSGVPSRFSGSGSGTDFSLTISSLQPEDFATYYCQQSYSAPLSFGGGTKVEIK"
reported_property = "median fluorescence fold over isotype"
result_value = "1.12 fold over isotype"

[[record]]
binder = "antibody 327 (antibody, V domains shown) VH: QVQLVESGGGVVQPGRSLRLSCAASGFNLSNYAMHWVRQASGKGLEWVSLISYDGSIKYYTDSVKGRFTVSGDNSKNTLFLQMNSLRPDDSALYYCVRGGVSGPNSFDMWGQGTTVTVSS VL: DVVMTQSPLSLPVTLGQPASISCRSSQSLVYSDGNTYVNWFQQRPGQSPRRLIYQVSIRASGVPDRFSGSGSGTDFALKISRVEAEDVGIYYCMQGTHWPVTFGQGTKVEIK"
reported_property = "median fluorescence fold over isotype"
result_value = "9.54 fold over isotype"

[[record]]
binder = "antibody 366 (antibody, V domains shown) VH: QVQLVESGGGVVQPGRSLRLSCAASGFTFSSYAMHWVRQAPGKGLEWVAVISYDGSNKYYADSVKGRFTISRDNSKNTLYLQMNSLRAEDTAVYYCARGLVGYNWFDPWGQGTLVTVSS VL: DIQMTQSPSSVSASVGDRVTITCRASQGISSWLAWYQQKPGKAPKLLIYAASSLQSGVPSRFSGSGSGTDFTLTISSLQPEDFATYYCQQANSFTFGPGTKVDIK"
reported_property = "median fluorescence fold over isotype"
result_value = "8.97 fold over isotype"


Turning to the following binder.
For reference, reported median fluorescence fold over isotype for antibody 345 (antibody, V domains shown) VH: QVQLQESGPGLVKPSQTLSLTCTVSGGSISSGDYYWSWIRQPPGKGLEWIGYIYYSGSTYYNPSLKSRVTISVDTSKNQFSLKLSSVTAADTAVYYCARVGMVDNWNFEGNWFDPWGQGTLVTVSS VL: QSALTQPRSVSGSPGQSVTISCTGTSSDVGGYNYVSWYQQHPGKAPKLMIYDVSKRPSGVPDRFSGSKSGNTASLTISGLQAEDEADYYCCSYAGSVVFGGGTKLTVL stands at 11.7 fold over isotype
